Test system: Rattus norvegicus
PROTOCOL_TEXT: Antiinflammatory activity against carrageenan-induced paw edema male Wistar albino rat at 50 mg/kg, ip administered 30 mins prior to carrageenan-challenge measured after 2 hrs relative to control
Format: functional
MEASUREMENT_CONDITIONS: route intraperitoneal
ENDPOINT_NAME: Activity (%)
Give the value, in units of %, as a plain number.

O=C(O)c1sc(-c2cn(-c3ccccc3)nc2-c2ccc(F)cc2)nc1-c1ccccc1
81.81

q: Given the compound COc1ccc(-c2nn(-c3ccccc3)cc2-c2nc(-c3ccc(Cl)cc3)c(C(=O)O)s2)cc1 , write its reported Activity.
a: 78.51

q: Assign Activity to the following record: O=C(O)c1sc(-c2cn(-c3ccccc3)nc2-c2ccc(Cl)cc2)nc1-c1ccc(Cl)cc1
a: 80.99

q: Please indicate Activity recorded for CCOC(=O)c1sc(-c2cn(-c3ccccc3)nc2-c2ccc(Cl)cc2)nc1-c1ccccc1
a: 81.81

q: Provide measured Activity value, entry: O=C(O)c1sc(-c2cn(-c3ccccc3)nc2-c2ccccc2)nc1-c1ccc(Cl)cc1
a: 82.64

q: Given O=C(O)c1sc(-c2cn(-c3ccccc3)nc2-c2ccc(Cl)cc2)nc1-c1ccccc1 , respond with its Activity.
a: 61.98

q: Respond only with Activity recorded for COc1ccc(-c2nc(-c3cn(-c4ccccc4)nc3-c3ccc(F)cc3)sc2C(=O)O)cc1
a: 66.94

q: Quote Activity reported for COc1ccc(-c2nc(-c3cn(-c4ccccc4)nc3-c3ccc(Cl)cc3)sc2C(=O)O)cc1 please.
a: 89.29

q: Identify measured Activity associated with O=C(O)c1sc(-c2cn(-c3ccccc3)nc2-c2ccccc2)nc1-c1ccc(F)cc1
a: 86.77

====

System: Rattus norvegicus
PROTOCOL_TEXT: Antiinflammatory activity against carrageenan-induced paw edema male Wistar albino rat at 50 mg/kg, ip administered 30 mins prior to carrageenan-challenge measured after 1 hr relative to control
Type: functional
MEASUREMENT_CONDITIONS: route intraperitoneal
ENDPOINT_NAME: Activity (%)
Quick note: give the figure in %, leave out the unit.

Answered examples (2):
CCOC(=O)c1sc(-c2cn(-c3ccccc3)nc2-c2ccc(OC)cc2)nc1-c1ccc(Cl)cc1
86.48
COc1ccc(-c2nn(-c3ccccc3)cc2-c2nc(-c3ccc(OC)cc3)c(C(=O)O)s2)cc1
82.88

q: Please supply the value of reported Activity for the item O=C(O)c1sc(-c2cn(-c3ccccc3)nc2-c2ccc(F)cc2)nc1-c1ccccc1
a: 87.38

q: Give the reported Activity for this compound. CCOC(=O)c1sc(-c2cn(-c3ccccc3)nc2-c2ccccc2)nc1-c1ccc(Cl)cc1
a: 80.18

====

Tested on: Rattus norvegicus
PROTOCOL_TEXT: Antiinflammatory activity against carrageenan-induced paw edema male Wistar albino rat at 50 mg/kg, ip administered 30 mins prior to carrageenan-challenge measured after 1 hr relative to control
Type: functional
MEASUREMENT_CONDITIONS: route intraperitoneal
Listing of recorded Activity by entry.
Answer in %, number only, no unit symbol.

CCOC(=O)c1sc(-c2cn(-c3ccccc3)nc2-c2ccc(Cl)cc2)nc1-c1ccc(OC)cc1
90.99
O=C(O)c1sc(-c2cn(-c3ccccc3)nc2-c2ccccc2)nc1-c1ccc(F)cc1
82.88
CCOC(=O)c1sc(-c2cn(-c3ccccc3)nc2-c2ccccc2)nc1-c1ccc(F)cc1
73.87
O=C(O)c1sc(-c2cn(-c3ccccc3)nc2-c2ccc(Cl)cc2)nc1-c1ccc(F)cc1
73.87

Consider now this further compound.
q: Tell me measured Activity for O=C(O)c1sc(-c2cn(-c3ccccc3)nc2-c2ccc(F)cc2)nc1-c1ccc(Cl)cc1 please.
a: 70.27
